melting point values by entry

{"columns": ["molecule", "reported-property", "result"],
 "data": [
  ["CC(=O)OCC(=O)C1=CCC2C3CCC4=CC(=O)C=CC4(C)C3C(O)CC12C (stereo unspecified)", "melting point", "203 to 205 °C"],
  ["Nc1c(Cl)cc(C(=O)OCC2CCN(CCCn3nc(Cl)ccc3=O)CC2)c2c1CCO2", "melting point", "137 °C"],
  ["FC(F)(F)Sc1ccc(/C=C/c2nc(COc3ccc(-c4nc(Cn5ccnc5)co4)cc3)co2)cc1", "melting point", "144 to 145 °C"],
  ["OC(c1ccccn1)c1cc2ccncc2[nH]1 (stereo unspecified)", "melting point", "166 to 169 °C"],
  ["COC(=O)c1c(C(C)C)nc2c(c1-c1ccc(F)cc1)CCCN2", "melting point", "168 to 170 °C"]
]}

The record that follows has no melting point shown yet.
Ask | Report melting point for CCCCCCNC(=O)C1CCCN1 (stereo unspecified) please.
Reply | 61 to 64 °C

---

reported-property: melting point

Answered examples (3):
{"columns": ["smiles-data", "result"],
 "data": [
  ["Cc1cc(C(=O)N2Cc3ccc(C(=O)N(C)C[C@H](O)[C@H]4OC(=O)O[C@@H]4[C@H](O)CO)n3Cc3ccccc32)ccc1C1=CCCCC1", "166 to 175 °C"],
  ["CC(C)c1ccc(Oc2ccc(C(=O)c3ccc(Oc4ccc(C(C)C)cc4)cc3)cc2)cc1", "104 to 105 °C"],
  ["CCOc1nc2ccccc2nc1N(CC)C(=O)N1CCN(c2cc(C)cc(C)c2)CC1", "142 to 144 °C"]
]}

The record that follows has no melting point shown yet.
Ask | Report melting point for "Cn1cnc(Cc2cccc(CO)c2O)c1" please.
Reply | 139 to 144 °C

---

melting point values by entry

{"columns": ["compound", "result"],
 "data": [
  ["O=C(O)C1Cc2c(ncn2CCC2CCCCC2)CN1C(=O)C(c1ccccc1)c1ccccc1 (stereo not given)", "137 to 140 °C"],
  ["CC(Cc1c[nH]c2ccccc12)(NC(=O)OCC1c2ccccc2-c2ccccc21)C(=O)NCCc1ccccc1 (stereo not given)", "179 to 181 °C"],
  ["CCc1ccc(C(=O)c2ccc(F)cc2)c(O)c1", "44 to 48 °C"],
  ["Nc1cc(-c2nnc(CCc3cccc(F)c3)o2)ccn1", "165 to 166 °C"]
]}

Ask | Report melting point for "Cc1nn(C(C)(C)C)c(N)c1C(N)=O" please.
Reply | 195 to 196 °C

---

melting point values by entry

{"columns": ["compound", "melting point"],
 "data": [
  ["CC1(C)Oc2ccc(C#N)cc2[C@@H](N2CCCNC2=NC#N)[C@@H]1O (relative stereo)", "152 to 153 °C"],
  ["Cc1c(N=C2NCCO2)cccc1NS(C)(=O)=O", "124 to 140 °C"],
  ["Cc1ccc2[nH]c(-c3ccccc3)cc(=O)c2c1", "290 to 292 °C"],
  ["CC(C)(C)OC(=O)N1CCC(C(=O)c2nc3ccccc3n2Cc2ccccc2)CC1", "122 °C"],
  ["C[Si](C)(C)c1cccc2cc(C(=O)Nc3ccc(N4CC(O)C4)nc3)n(Cc3cccc(F)c3)c12", "215 to 217 °C"]
]}

Ask | Report melting point for Nc1nc2c(ncn2CC(CO)CCO)c(=O)[nH]1 (centres undefined) please.
Reply | 235 °C

Ask | Report melting point for COc1ccccc1N1CCN([C@H]2Cc3c(OC)ccc(OC)c3C[C@H]2O)CC1 (relative stereo) please.
Reply | 213 to 216 °C

Ask | Report melting point for COc1nc2ccccn2c(=O)c1-c1ccc(NC2CCN(C(=O)OC(C)(C)C)C2)cc1 (centres undefined) please.
Reply | 102 to 104 °C

Ask | Report melting point for "C=C(C)C(=O)Oc1ccc(S(=O)(=O)NCCCC)cc1" please.
Reply | 59 to 60 °C

---

melting point values by entry

Answered examples (8):
{"columns": ["molecule", "result"],
 "data": [
  ["O=C(OCC1CCC1)c1ncc2n1-c1cccc(Br)c1C(=O)N1CCC[C@@H]21", "170 to 172 °C"],
  ["N=C(N)c1ccc(C(=O)N[C@@H](Cc2ccccc2)C(=O)N2CCc3nn(CC(=O)O)cc3C2)cc1", "146 to 150 °C"],
  ["CCC(=O)c1c(CC)n(Cc2ccccc2Cl)c2cc(C#N)ccc12", "115 to 118 °C"],
  ["CN(C)C(=O)Cc1ccc(CC(=O)O)cc1", "163 to 165 °C"],
  ["CCCCCCCCCCCCCCCC(=O)N[C@@H](CSC[C@H](O)CO)C(=O)O", "110 °C"],
  ["CC(C)NC(=O)c1ccc(-c2ccc3oc(C4CCN(C(=O)OC(C)C)CC4)nc3c2)cc1F", "147 to 150 °C"],
  ["COCCNC(=O)c1cc(F)cc(-c2cccc3cc(Cc4cc(F)cc(Cl)c4)sc23)c1", "72 to 73 °C"],
  ["COc1ccccc1OCC1(COc2ccccc2OC)NCCS1", "86 to 88 °C"]
]}

Ask | Report melting point for "CC(=O)N(C)c1c(C(=O)C2CCCCC2)[nH]c2cc(Cl)ccc12" please.
Reply | 162 to 163 °C

Ask | Report melting point for "O=c1c2c(CCC(F)(F)F)n[nH]c2c2cccnc2n1-c1ccccc1" please.
Reply | 272 to 274 °C

Ask | Report melting point for "Cc1ccc(Cc2cnc(Cl)nc2OC(C)C)cn1" please.
Reply | 38 to 42 °C

Ask | Report melting point for "CN(C)CCCCC(=O)N1CCC(c2[nH]nc3c2C(=O)c2c(NC(=O)NN4CCOCC4)cccc2-3)CC1" please.
Reply | 68 to 70 °C

Ask | Report melting point for "C[C@H](c1ccccc1)N1C(=O)c2cccc([N+](=O)[O-])c2C1=O" please.
Reply | 115 to 117 °C

---

melting point values by entry

Answered examples (5):
{"columns": ["compound", "melting point"],
 "data": [
  ["CC(CO)(CO)NS(=O)(=O)c1cccc(NC(=O)c2cnn3c(C(F)F)cc(-c4ccc(C(F)(F)F)cc4)nc23)c1", "246 °C"],
  ["COc1ccc(CN(C)CCCOc2ccc(NC(=O)c3cccc4c(=O)c5cccc(OC)c5[nH]c34)cc2)cc1OC", "180 °C"],
  ["CC1(C)CCC(O)(CCN2C(=O)CSC2CCCc2ccc(C(=O)O)cc2)CC1 (configuration not stated)", "142 to 143 °C"],
  ["CC1(C)CN(C2CCN(c3cc(Cl)cc(Cl)c3)C2=O)C1=O (configuration not stated)", "185 to 186 °C"],
  ["N#CN1C2CCC1CC(c1n[nH]c3cc(F)ccc13)C2 (configuration not stated)", "182 to 184 °C"]
]}

Ask | Report melting point for "O=C(Nc1ccc(-n2nc(C3CC3)cc2C2CC2)cc1)c1ccccc1" please.
Reply | 133 to 138 °C

Ask | Report melting point for "O=C(CF)NCc1ccc2ccn(C3CCN(CCc4ccc(F)cc4)CC3)c2c1" please.
Reply | 106 to 108 °C

Ask | Report melting point for "Cc1ccc(N2CCN(c3cc4c(ncc5c4c(=O)c(C(=O)O)cn5C)c(F)c3Cl)CC2)cc1F" please.
Reply | 360 °C

Ask | Report melting point for "COc1ccc(CNC(=O)N(C)O)cc1OC" please.
Reply | 132 to 133 °C

Ask | Report melting point for "Cc1ccc(C(=C/C=C/C(=O)O)c2ccc(C)cc2)cc1" please.
Reply | 224 to 226 °C

Ask | Report melting point for "CCCc1nc(SCCCCC(=O)O)c(C(=O)O)n1Cc1cc2c(cc1Cl)OCO2" please.
Reply | 156 °C

Ask | Report melting point for "COc1cc(Nc2nccc(-c3ccc(Br)cc3)n2)cc(OC)c1OC" please.
Reply | 179 °C

Ask | Report melting point for "CCOC(=O)CON(C)C(=S)Nc1ccc(Cl)cc1C" please.
Reply | 104 to 106 °C

Ask | Report melting point for "Cc1c(O)ccc(C(=O)c2ccccc2F)c1C" please.
Reply | 131 to 132 °C

Ask | Report melting point for "CC(C)c1cc(C(=O)Nc2ccc(CC(=O)O)cc2)oc1C(C)C" please.
Reply | 154 to 156 °C

Ask | Report melting point for CN1Cc2cc(C(O)CN3CCC(COc4ccccc4)CC3)ccc2NC1=O (configuration not stated) please.
Reply | 205 °C

Ask | Report melting point for "CNC(=O)n1cnc(C)c1Br" please.
Reply | 98.4 to 100 °C

Ask | Report melting point for "CN1C(=O)C(C)(C)N=C(c2ccccc2Cl)c2c1ccc(N)c2Br" please.
Reply | 188 to 189 °C

Ask | Report melting point for "Cc1ccc(S(=O)(=O)N2C(=O)[C@H]3CC=C[C@H]32)cc1" please.
Reply | 93 to 95 °C

Ask | Report melting point for "Cc1nc(-c2cccc(OC(C)C)c2)sc1C(=O)O" please.
Reply | 177 to 179 °C

Ask | Report melting point for CN1CCC(C2(O)c3ccccc3C=Cc3ccc(C#N)cc32)CC1 (configuration not stated) please.
Reply | 219 to 221 °C

Ask | Report melting point for "COc1ccccc1N1CCN(CCc2c(C)c3ccc(OC)c(OC)c3oc2=O)CC1" please.
Reply | 146 to 148 °C

Ask | Report melting point for "N#Cc1ccc(CCc2cc(Cl)ccc2OCc2ccccc2)cc1" please.
Reply | 77 to 79 °C

Ask | Report melting point for "CCCCOc1nc2ccnn2c2ncccc12" please.
Reply | 99.8 °C

Ask | Report melting point for "COC(=O)Nc1cnc2c(NC(=O)c3c(Cl)cccc3Cl)cccc2c1-n1ccnc1" please.
Reply | 236 to 238 °C

Ask | Report melting point for "NC(=O)Cn1c(-c2ccc(Cl)cc2)nc2cccnc21" please.
Reply | 270 to 271 °C

Ask | Report melting point for CC(C(=O)O)c1ccc(C=C2CCCC2O)cc1 (configuration not stated) please.
Reply | 125 to 132 °C

Ask | Report melting point for "CCOC(CBr)(OCC)c1ccc(OC)cc1" please.
Reply | 55 to 56 °C

Ask | Report melting point for "C#Cc1nc(-c2ccco2)c2ncn(Cc3ccc(OC)cc3)c2n1" please.
Reply | 155 °C

src = a melting point compilation (Tetko et al.; mined from patent text by program, amines drawn as free bases though some values may be those of a salt)
